Recorded values, source the supplement of paper PMC10567573.

As shown below, each of these variants has a reported protein stability index value.
B1: FAM46D (parent)
chain: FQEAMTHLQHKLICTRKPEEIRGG

Variants of: B1
ASSAY: protein stability index of a GFP-peptide fusion (GPS, HEK-293T) (PSI 1-6); higher = more stable;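 also: lentivirally expressed fusions sorted by FACS into six bins by GFP to DsRed ratio, PSI derived from sequencing read proportions per bin multiplied by bin number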
EXPERIMENTAL_SETUP: c terminus: a fixed tail appended

Use the examples below as a reference point.
• C14F = 2.58
• K17Q = 2.33
• G23C = 2.08
• Q2P = 2.53
• G23W = 2.48

Could you now consider this next variant?
Quick check: protein stability index of L12E ?
3.27
